Test system: clinical isolates of S. aureus (MRSA)
protocol_notes: antibiotic susceptibility profiling of clinical isolates (Vitek2, EUCAST); further: key: R = Resistant; S = Susceptible; I = Intermediate
Assay type: cell-based, Staphylococcus aureus
reported_conditions: clinical isolate MRSA 1

compound: Cc1onc(-c2ccccc2)c1C(=O)N[C@@H]1C(=O)N2[C@@H]1SC(C)(C)[C@@H]2C(=O)O [OX, Oxacillin]
Antibiotic-resistance profile, MRSA 1: R
//
compound: C[C@H]1COc2c(N3CCN(C)CC3)c(F)cc3c(=O)c(C(=O)O)cn1c23 [LVX, Levofloxacin]
Antibiotic-resistance profile, MRSA 1: R
//
compound: CN(C)[C@@H]1C(O)=C(C(N)=O)C(=O)[C@@]2(O)C(O)=C3C(=O)c4c(O)cccc4[C@@](C)(O)[C@H]3C[C@@H]12 [TE, Tetracycline]
Antibiotic-resistance profile, MRSA 1: S
//
compound: CNC(C)C1CCC(N)C(OC2C(N)CC(N)C(OC3OCC(C)(O)C(NC)C3O)C2O)O1 (centres unmarked) [GEN, gentamicin]
Antibiotic-resistance profile, MRSA 1: S
//
compound: CN[C@H](CC(C)C)C(=O)N[C@H]1C(=O)N[C@@H](CC(N)=O)C(=O)N[C@H]2C(=O)N[C@H]3C(=O)N[C@H](C(=O)N[C@H](C(=O)O)c4cc(O)cc(O)c4-c4cc3ccc4O)[C@H](O)c3ccc(c(Cl)c3)Oc3cc2cc(c3O[C@@H]2O[C@H](CO)[C@@H](O)[C@H](O)[C@H]2O[C@H]2C[C@](C)(N)[C@H](O)[C@H](C)O2)Oc2ccc(cc2Cl)[C@H]1O [VA, Vancomycin]
Antibiotic-resistance profile, MRSA 1: S
